MEASURED QUANTITY: melting point

Example cases with answers are listed next.
[[record]]
compound = "CCOC(=O)CNC(=O)CNCc1ccc(-c2cc3ncnc(Nc4ccc5[nH]ccc5c4)c3s2)cc1"
recorded_value = "98 to 115 °C"

[[record]]
compound = "O=Cc1c[nH]c2ccc(Nc3ncnc4cc(-c5ccccc5)sc34)cc12"
recorded_value = "174 to 175 °C"

[[record]]
compound = "c1ccc(COCCNc2ccc(Nc3ncnc4cc(-c5ccccc5)sc34)cc2)cc1"
recorded_value = "201 to 203 °C"


// query Consider the compound shown here: "NC(=O)C1CCN(Cc2ccc(-c3cc4ncnc(Nc5ccc6[nH]ccc6c5)c4s3)cc2)CC1" What is its recorded melting point?
// result 198 to 205 °C

// query Consider the compound shown here: COCC1CCCN1Cc1ccc(-c2cc3ncnc(Nc4ccc5[nH]ccc5c4)c3s2)cc1 (centres unmarked) What is its recorded melting point?
// result 161 to 177 °C

// query Consider the compound shown here: "COc1ccc(Nc2ccc(Nc3ncnc4cc(-c5cccs5)sc34)cc2)cc1" What is its recorded melting point?
// result 231 to 240 °C

// query Consider the compound shown here: "COc1ccc(Nc2ccc(Nc3ccnc4cc(-c5ccc(OC)nc5)sc34)cc2)cc1" What is its recorded melting point?
// result 175 to 184 °C

// query Consider the compound shown here: "CN(C)CCCNCc1ccc(-c2cc3ncnc(Nc4ccc5[nH]ccc5c4)c3s2)cc1" What is its recorded melting point?
// result 148 to 160 °C

// query Consider the compound shown here: "CSc1ccc(-c2cc3ncnc(Nc4ccc5[nH]ccc5c4)c3s2)cc1" What is its recorded melting point?
// result 163 to 178 °C

// query Consider the compound shown here: "Cc1c[nH]c2ccc(Nc3ncnc4cc(-c5ccccc5)sc34)cc12" What is its recorded melting point?
// result 221 to 223 °C

// query Consider the compound shown here: "c1coc(CNCc2ccc(-c3cc4ncnc(Nc5ccc6[nH]ccc6c5)c4s3)cc2)c1" What is its recorded melting point?
// result 125 to 134 °C
